- System: human tumour cell lines
- test.protocol: Panel of human tumour cell lines, all cell lines (mean graph midpoint)
- Type: cell-based
- condition.summary: mean graph midpoint, average of 49 (38-59) human tumour cell lines, 48 h incubation; read-out: All cell lines IC50
experimental.endpoint: pIC50
Worth noting: pIC50 values are minus log10 of concentrations stated in mol/L.

Query: Please look up its pIC50: Cc1ccc(C=C2CN(C(=O)c3ccc(OCCN4CCCCC4)cc3)CC(=Cc3ccc(C)cc3)C2=O)cc1.Cc1ccc(C=C2CN(C(=O)c3ccc(OCCN4CCCCC4)cc3)CC(=Cc3ccc(C)cc3)C2=O)cc1.Cl.Cl.O [Compound 5d, hydrochloride hemihydrate]
Result: 5.86

Query: Please look up its pIC50: CC[N+](C)(CC)CCOc1ccc(C(=O)N2CC(=Cc3ccc(C)cc3)C(=O)C(=Cc3ccc(C)cc3)C2)cc1.[I-] [Compound 7d]
Result: 5.11

====

- System: COLO 205
- test.protocol: Human tumour cell line panel, colon cancer COLO 205
- Assay type: cell-based
- condition.summary: 48 h; read-out: Colon cancer cells, IC50(μM) COLO 205
experimental.endpoint: IC50 (µM)
Expressed in µM, but write only the number.

Query: Please look up its IC50: "CC[N+](C)(CC)CCOc1ccc(C(=O)N2CC(=Cc3ccc(C)cc3)C(=O)C(=Cc3ccc(C)cc3)C2)cc1.[I-]"
Result: 8.91

Query: Please look up its IC50: "CC[N+](C)(CC)CCOc1ccc(C(=O)N2CC(=Cc3ccccc3)C(=O)C(=Cc3ccccc3)C2)cc1.[I-]"
Result: 20.4

Query: Please look up its IC50: Cc1ccc(C=C2CN(C(=O)c3ccc(OCCN4CCCCC4)cc3)CC(=Cc3ccc(C)cc3)C2=O)cc1.Cc1ccc(C=C2CN(C(=O)c3ccc(OCCN4CCCCC4)cc3)CC(=Cc3ccc(C)cc3)C2=O)cc1.Cl.Cl.O [Compound 5d, hydrochloride hemihydrate]
Result: 6.92

Query: Please look up its IC50: "O=C1C(=Cc2ccccc2)CNCC1=Cc1ccccc1"
Result: 1.55

====

- Tested on: human periodontal ligament fibroblasts (HPLF)
- test.protocol: in vitro
Doc: threshold 20 µM (exclusive). Items with CC50 beneath it return Met; others return Not met.

Query: Here's an entry: Cc1ccc(C=C2CN(C(=O)c3ccc(OCCN4CCCCC4)cc3)CC(=Cc3ccc(C)cc3)C2=O)cc1.Cc1ccc(C=C2CN(C(=O)c3ccc(OCCN4CCCCC4)cc3)CC(=Cc3ccc(C)cc3)C2=O)cc1.Cl.Cl.O [Compound 5d, hydrochloride hemihydrate] . Is its CC50 below 20 µM?
Result: Met

Query: Here's an entry: "O=C1C(=Cc2ccccc2)CNCC1=Cc1ccccc1" . Is its CC50 below 20 µM?
Result: Not met

Query: Here's an entry: Cl.O=C1C(=Cc2ccc(Cl)cc2)CN(C(=O)c2ccc(OCCN3CCOCC3)cc2)CC1=Cc1ccc(Cl)cc1 [Compound 6b, hydrochloride] . Is its CC50 below 20 µM?
Result: Not met

Query: Here's an entry: "CC[N+](C)(CC)CCOc1ccc(C(=O)N2CC(=Cc3ccc(Cl)cc3)C(=O)C(=Cc3ccc(Cl)cc3)C2)cc1.[I-]" . Is its CC50 below 20 µM?
Result: Met

Query: Here's an entry: Cl.Cl.O.O.O.O=C1C(=Cc2ccc([N+](=O)[O-])cc2)CN(C(=O)c2ccc(OCCN3CCCCC3)cc2)CC1=Cc1ccc([N+](=O)[O-])cc1.O=C1C(=Cc2ccc([N+](=O)[O-])cc2)CN(C(=O)c2ccc(OCCN3CCCCC3)cc2)CC1=Cc1ccc([N+](=O)[O-])cc1 [Compound 5c, hydrate] . Is its CC50 below 20 µM?
Result: Met

Query: Here's an entry: "CC[N+](C)(CC)CCOc1ccc(C(=O)N2CC(=Cc3ccc(C)cc3)C(=O)C(=Cc3ccc(C)cc3)C2)cc1.[I-]" . Is its CC50 below 20 µM?
Result: Met

Query: Here's an entry: "CC[N+](C)(CC)CCOc1ccc(C(=O)N2CC(=Cc3ccc([N+](=O)[O-])cc3)C(=O)C(=Cc3ccc([N+](=O)[O-])cc3)C2)cc1.[I-]" . Is its CC50 below 20 µM?
Result: Met

Query: Here's an entry: "CC[N+](C)(CC)CCOc1ccc(C(=O)N2CC(=Cc3ccccc3)C(=O)C(=Cc3ccccc3)C2)cc1.[I-]" . Is its CC50 below 20 µM?
Result: Not met

====

- System: SR
- test.protocol: Human tumour cell line panel, leukemic SR
- Assay type: cell-based
- condition.summary: Homo sapiens, SR, 48 h, read-out: Leukemic cells, IC50(μM) SR
experimental.endpoint: IC50 (µM)
Expressed in µM, but write only the number.

Query: Please look up its IC50: N[C@@H](Cc1ccc(N(CCCl)CCCl)cc1)C(=O)O [Melphalan, reference compound]
Result: 1.86

====

- Test system: human promyelocytic leukemia HL-60
- test.protocol: Cytotoxicity CC50, trypan blue exclusion, HL-60
Can you tell me CC50 for the items I'm about to list?
Expressed in µM, but write only the number.

Query: Please look up its CC50: CC[N+](C)(CC)CCOc1ccc(C(=O)N2CC(=Cc3ccc([N+](=O)[O-])cc3)C(=O)C(=Cc3ccc([N+](=O)[O-])cc3)C2)cc1.[I-] [Compound 7c]
Result: 29

Query: Please look up its CC50: O=C1C(=Cc2ccccc2)CNCC1=Cc1ccccc1 [Compound 1a]
Result: 1.5

Query: Please look up its CC50: CC[N+](C)(CC)CCOc1ccc(C(=O)N2CC(=Cc3ccc(Cl)cc3)C(=O)C(=Cc3ccc(Cl)cc3)C2)cc1.[I-] [Compound 7b]
Result: 64

Query: Please look up its CC50: O=C1C(=Cc2ccc(Cl)cc2)CNCC1=Cc1ccc(Cl)cc1 [Compound 1b]
Result: 22

====

- Test system: human tumour cell lines
- test.protocol: Panel of human tumour cell lines, all cell lines (mean graph midpoint)
- Type: cell-based
- condition.summary: mean graph midpoint, average of 49 (38-59) human tumour cell lines, 48 h incubation; read-out: All cell lines IC50
experimental.endpoint: IC50

Query: Please look up its IC50: Cl.O=C1C(=Cc2ccc(Cl)cc2)CN(C(=O)c2ccc(OCCN3CCOCC3)cc2)CC1=Cc1ccc(Cl)cc1 [Compound 6b, hydrochloride]
Result: < 562 nM

Query: Please look up its IC50: "CC[N+](C)(CC)CCOc1ccc(C(=O)N2CC(=Cc3ccccc3)C(=O)C(=Cc3ccccc3)C2)cc1.[I-]"
Result: > 41700 nM

Query: Please look up its IC50: "O=C1C(=Cc2ccccc2)CNCC1=Cc1ccccc1"
Result: 1620 nM

====

- test.protocol: in vitro
- condition.summary: human
experimental.endpoint: CC50 at 24 h (µM)
Expressed in µM, but write only the number.

Query: Please look up its CC50 at 24 h: Cl.O=C1C(=Cc2ccc(Cl)cc2)CN(C(=O)c2ccc(OCCN3CCCCC3)cc2)CC1=Cc1ccc(Cl)cc1 [Compound 5b, hydrochloride]
Result: 340

====

- Test system: human periodontal ligament fibroblasts (HPLF)
- test.protocol: in vitro
experimental.endpoint: CC50 (µM)
Expressed in µM, but write only the number.

Query: Provide value of CC50 for this record tested with human periodontal ligament fibroblasts (HPLF): O=C1C(=Cc2ccc(Cl)cc2)CNCC1=Cc1ccc(Cl)cc1 [Compound 1b]
Result: 56

====

- Test system: HCT 116
- test.protocol: Human tumour cell line panel, colon cancer HCT 116
- Format: cell-based
- condition.summary: Homo sapiens, HCT-116, 48 h, read-out: Colon cancer cells, IC50(μM) HCT 116
experimental.endpoint: IC50 (µM)
Expressed in µM, but write only the number.

Query: Please look up its IC50: N[C@@H](Cc1ccc(N(CCCl)CCCl)cc1)C(=O)O [Melphalan, reference compound]
Result: 30.2

====

- Tested on: HSC-2, HSC-4 and HL-60 malignant cells
- test.protocol: Average CC50 for malignant cells
- Procedure: In addition, the compounds were evaluated against human squamous cell carcinomas (HSC-2 and HSC-4) and human promyelocytic leukemia neoplasms (HL-60) and compared with normal cells, i.e. human gingival fibroblasts (HGF), human pulp cells (HPC) and human periodontal ligament fibroblasts (HPLF). MTT stands for 3-(4,5-dimethylthiazol-2-yl)-2,5-diphenyltetrazolium bromide). […]
experimental.endpoint: CC50(μM) ave

Query: Provide value of CC50(μM) ave for this record tested with HSC-2, HSC-4 and HL-60 malignant cells: "CC[N+](C)(CC)CCOc1ccc(C(=O)N2CC(=Cc3ccc(C)cc3)C(=O)C(=Cc3ccc(C)cc3)C2)cc1.[I-]"
Result: 17 µM

Query: Provide value of CC50(μM) ave for this record tested with HSC-2, HSC-4 and HL-60 malignant cells: "Cc1ccc(C=C2CN(C(=O)c3ccc(OCCN4CCCCC4)cc3)CC(=Cc3ccc(C)cc3)C2=O)cc1.Cc1ccc(C=C2CN(C(=O)c3ccc(OCCN4CCCCC4)cc3)CC(=Cc3ccc(C)cc3)C2=O)cc1.Cl.Cl.O"
Result: 3.1 µM

Query: Provide value of CC50(μM) ave for this record tested with HSC-2, HSC-4 and HL-60 malignant cells: "CC[N+](C)(CC)CCOc1ccc(C(=O)N2CC(=Cc3ccccc3)C(=O)C(=Cc3ccccc3)C2)cc1.[I-]"
Result: 98 µM
